Molecular target: T1, recombinant human TIGIT (human, UniProt Q495A1 22-141, limits assumed)
T1 construct: recombinant human TIGIT used in Carterra SPR; also called hTIGIT
T1 sequence (looked up): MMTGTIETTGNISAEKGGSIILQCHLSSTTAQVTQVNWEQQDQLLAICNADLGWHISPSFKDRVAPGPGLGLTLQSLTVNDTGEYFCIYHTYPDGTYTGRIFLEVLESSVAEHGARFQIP
Assay: SPR Carterra, average
koff values by entry
Could you kindly put the unit after your number?

These recorded examples may help you get a feel for the data.
# Binder, Result
data = [
    ("TIGIT-SC4 (Fc fusion, VHH-Fc fusion in assay) VHH: EVQLVESGGGLVQPGGSLRLSCAASGSIDRINAMGWFRQATGKEREWVASVLRGGYTWYADSVKGRFTISADNSKNTAYLQMNSLKPEDTAVYYCARDSYSTSFWFDPWGQGTLVTVSS", "0.00222 s⁻¹"),
    ("TIGIT-SC113 (Fc fusion, VHH-Fc fusion in assay) VHH: EVQLVESGGGLVQPGGSLRLSCAASGFTLNDYAMGWFRQAPGKERELVAWIARYDGSTLYADSVKGRFTISADNSKNTAYLQMNSLKPEDTAVYYCTWGDGYNLGAFDIWGQGTLVTVSS", "0.000483 s⁻¹"),
    ("TIGIT-SC188 (Fc fusion, VHH-Fc fusion in assay) VHH: EVQLVESGGGLVQPGGSLRLSCAASGNTFSGGFMGWFRQAPGKEREWVASVLRGGYTWYADSVKGRFTISADNSKNTAYLQMNSLKPEDTAVYYCTTDSLPGWGQGTLVTVSS", "0.00309 s⁻¹"),
    ("TIGIT-SC104 (Fc fusion, VHH-Fc fusion in assay) VHH: EVQLVESGGGLVQPGGSLRLSCAASGFTFSTYTMGWFRQAPGKEREFVAAISPSGNTYYADSVKGRFTISADNSKNTAYLQMNSLKPEDTAVYYCARWGGITFGGVYPLDYWGQGTLVTVSS", "0.00375 s⁻¹"),
]

Entry under test: TIGIT-SC106 (Fc fusion, VHH-Fc fusion in assay) VHH: EVQLVESGGGLVQPGGSLRLSCAASGFPFDDYAMGWFRQAPGKERELVAVIRWTGMSTHYADSVKGRFTISADNSKNTAYLQMNSLKPEDTAVYYCAKGIAVAGAFDYWGQGTLVTVSS . Its koff was 0.000753 s⁻¹

Entry under test: TIGIT-SC53 (Fc fusion, VHH-Fc fusion in assay) VHH: EVQLVESGGGLVQPGGSLRLSCAASGFTFSPSWMGWFRQAPGKEREWVASVLRGGYTWYADSVKGRFTISADNSKNTAYLQMNSLKPEDTAVYYCARESTIVGAIDSWGQGTLVTVSS . Its koff was 0.0027 s⁻¹

Entry under test: TIGIT-SC203 (Fc fusion, VHH-Fc fusion in assay) VHH: EVQLVESGGGLVQPGGSLRLSCAASGFTFSPSWMGWFRQAPGKEREWVASVLRGGYTWYADSVKGRFTISADNSKNTAYLQMNSLKPEDTAVYYCARDRGGSDWGQGTLVTVSS . Its koff was 0.14 s⁻¹

Entry under test: TIGIT-SC208 (Fc fusion, VHH-Fc fusion in assay) VHH: EVQLVESGGGLVQPGGSLRLSCAASGFLFDSYVMGWFRQAPGKEREFVAAIWRSGTLKAYADSVKGRFTISADNSKNTEYLQMNSLKPEDTAVYYCARDDYGDTRRYFQHWGQGTLVTVSS . Its koff was 0.196 s⁻¹
